- system_name: human platelet PDE5 (Homo sapiens)
- Construct: utilizes PDE5 isolated from human platelets; from tissue; host or cells: human platelets
- measurement_protocol: Method A: PDE-5 Inhibition Scintillation Proximity Assay (SPA) - Human Platelet
- Format: biochemical
- condition_summary: cGMP substrate 500 nM, PDE5 isolated from human platelets
pIC50: −log10 of the molar value. Structures can show the parent of a compound that is named as a salt.
The threshold is inclusive: pIC50 of exactly 9 counts as rule met; values below receive rule not met.

CCOCCn1nc(CNC)c2nc(N(C)C)nc(Nc3cnccn3)c21 [Example 17, hydrochloride] : rule not met

hey, is pIC50 for this one >= 9? `CCOCCn1nc(CN(C)C(C)=O)c2nc(N(C)C)nc(Nc3cc(C)ccn3)c21`
rule met

Check the entry `CCOCCn1nc(CN2CC[C@H](OC)C2)c2nc(N(C)C)nc(Nc3cc(C)ccn3)c21` : does pIC50 equal or exceed 9?
rule not met

Check this compound for pIC50 at or above 9: `CCCNCc1nn(CCOCC)c2c(Nc3cc(C)ccn3)nc(N(C)C)nc12`
rule not met

Could you verify whether the entry `CCOCCn1nc(CNC(C)=O)c2nc(NC)nc(Nc3cc(C)ccn3)c21` shows pIC50 of no less than 9?
rule not met

State whether the measured pIC50 reaches 9, counting equality as reaching it, for `CCOCCn1nc(CNC(C)=O)c2nc(N(C)C)nc(Nc3cc(C)ccn3)c21`
rule met

---

- system_name: human platelet PDE5 (Homo sapiens, UniProt O76074)
- Construct: utilizes PDE5 isolated from human platelets; from tissue; host or cells: human platelets
- measurement_protocol: Method B: PDE-5 Inhibition Scintillation Proximity Assay (SPA) - Human Platelet (modified protocol of Method A)
- Format: biochemical
- condition_summary: cGMP substrate 50 nM, PDE5 isolated from human platelets
Counter-ions that a name gives are not always drawn.
measured_property: IC50
Write the numeric value and follow it with the unit.

C[C@@H]1CN(c2nc(Nc3ccncn3)c3c(n2)c(CN2CCS(=O)(=O)CC2)nn3CCOCC(F)(F)F)CCN1 [Example 49, trifluoroacetate] : 0.58 nM
CCN(C)c1nc(Nc2ccncn2)c2c(n1)c(CN1CCSCC1)nn2CCOCC(F)(F)F : 0.79 nM
C[C@@H]1CN(c2nc(Nc3ccncn3)c3c(n2)c(CN2CCSCC2)nn3CCOCC(F)(F)F)CCN1 [Example 46, trifluoroacetate] : 0.14 nM

Attention now turns to another entry.
// FC(F)(F)COCCn1nc(CN2CCOCC2)c2nc(N3CCNCC3)nc(Nc3ccncn3)c21 [Example 43, trifluoroacetate] : IC50 value = 0.21 nM

---

- system_name: human platelet PDE5 (Homo sapiens)
- Construct: utilizes PDE5 isolated from human platelets; from tissue; host or cells: human platelets
- measurement_protocol: Method A: PDE-5 Inhibition Scintillation Proximity Assay (SPA) - Human Platelet
- Format: biochemical
- condition_summary: cGMP substrate 500 nM, PDE5 isolated from human platelets
pIC50: −log10 of the molar value. Structures can show the parent of a compound that is named as a salt.
Lab note: compare pIC50 against 9. Equal or greater, write 1. Smaller, write -1.

Please review the following examples before continuing.
CCOCCn1nc(CN(C)C(C)=O)c2nc(N(C)C)nc(Nc3ccncn3)c21 [Example 16] : -1
CCOCCn1nc(CN2CCCC2)c2nc(N(C)C)nc(Nc3cc(C)ccn3)c21 [Example 25] : -1
CCOCCn1nc(CN2CC[C@@H](OC)C2)c2nc(N(C)C)nc(Nc3cc(C)ccn3)c21 [Example 22] : -1
CCOCCn1nc(CNC)c2nc(N(C)CCO)nc(Nc3cc(C)ccn3)c21 [Example 36, hydrochloride] : -1
CCNc1nc(Nc2cc(C)ccn2)c2c(n1)c(CN(C)C(C)=O)nn2CCOCC [Example 15] : 1

Now consider the entry below.
Can CCNCc1nn(CCOCC)c2c(Nc3cc(C)ccn3)nc(N(C)C)nc12 [Example 31] be said to have pIC50 at or above 9?
-1

Hello, the source for this data is patent US7569572B2, in case you need it.
